These data points were gathered from patent US20150037348A1.

# PHA assay IC50 listing for each entry below
- MEASURED ON: T1, recombinant human IL-12 (rhIL-12) (human, UniProt P29459 23-219; P29460 23-328)
- T1 sequence (looked up) 1: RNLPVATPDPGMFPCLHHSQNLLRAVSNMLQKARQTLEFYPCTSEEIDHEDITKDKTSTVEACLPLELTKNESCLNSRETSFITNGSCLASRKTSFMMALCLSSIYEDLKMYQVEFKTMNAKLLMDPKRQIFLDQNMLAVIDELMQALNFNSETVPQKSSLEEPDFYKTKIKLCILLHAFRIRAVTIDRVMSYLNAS
- T1 sequence (looked up) 2: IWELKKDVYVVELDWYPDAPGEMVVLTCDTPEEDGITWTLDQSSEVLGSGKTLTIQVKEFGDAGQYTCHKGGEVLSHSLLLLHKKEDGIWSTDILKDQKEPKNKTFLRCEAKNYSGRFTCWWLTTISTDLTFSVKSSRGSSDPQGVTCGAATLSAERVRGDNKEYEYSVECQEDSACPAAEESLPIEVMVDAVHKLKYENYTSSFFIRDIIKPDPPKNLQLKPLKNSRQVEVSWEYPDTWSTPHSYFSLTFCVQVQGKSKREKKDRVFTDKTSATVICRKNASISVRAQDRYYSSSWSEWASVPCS
- ASSAY NAME: cell-based or functional assay

BINDER	PHA assay IC50 [nM]
Y61 IgG germline (antibody, V domains shown) VH: QVQLVESGGGVVQPGRSLRLSCAASGFTFSSYGMHWVRQAPGKGLEWVAFIRYDGSNKYYADSVKGRFTISRDNSKNTLYLQMNSLRAEDTAVYYCKTHGSHDNWGQGTMVTVSS VL: QSVLTQPPSVSGAPGQRVTISCSGSRSNIGSNTVKWYQQLPGTAPKLLIYGNDQRPSGVPDRFSGSKSGTSASLAITGLQAEDEADYYCQSYDRGTHPALLFGTGTKVTVL	0.13
Y61-L94N (scFv, V domains shown) VH: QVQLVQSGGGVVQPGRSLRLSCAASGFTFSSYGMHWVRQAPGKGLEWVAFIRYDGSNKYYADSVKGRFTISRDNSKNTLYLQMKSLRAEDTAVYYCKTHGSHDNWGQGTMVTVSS VL: SYVLTQPPSVSGTPGQRVTISCSGGRSNIGSNTVKWYQQLPGTAPKLLIYGNDQRPSGVPDRFSGSKSGTSASLAITGVQAEDEADYYCQSYDRNTHPALLFGTGTKVTVL	0.08
AO3 (scFv, V domains shown, scFv clone; only the CDR3s are tied to it) VH: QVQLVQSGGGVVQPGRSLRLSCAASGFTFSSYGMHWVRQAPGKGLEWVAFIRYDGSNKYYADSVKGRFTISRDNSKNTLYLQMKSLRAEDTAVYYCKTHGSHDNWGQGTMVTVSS VL: SYVLTQPPSVSGTPGQRVTISCSGGRSNIGSNTVKWYQQLPGTAPKLLIYGNDQRPSGVPDRFSGSKSGTSASLAITGVQAEDEADYYCQSYDRGTHPLTMFGTGTKVTVL	0.4
Y61 IgG (antibody, V domains shown, whole IgG1; also called Y61-IgG1) VH: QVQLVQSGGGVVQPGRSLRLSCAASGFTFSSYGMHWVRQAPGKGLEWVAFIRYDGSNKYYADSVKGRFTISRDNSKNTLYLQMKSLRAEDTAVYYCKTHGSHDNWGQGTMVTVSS VL: SYVLTQPPSVSGTPGQRVTISCSGGRSWIGSNTVKWYQQLPGTAPKLLIYGNDQRPSGVPDRFSGSKSGTSASLAITGVQAEDEADYYCQSYDRGTHPALLFGTGTKVTVLG	0.13
AO3 IgG1 (antibody, V domains shown, IgG1) VH: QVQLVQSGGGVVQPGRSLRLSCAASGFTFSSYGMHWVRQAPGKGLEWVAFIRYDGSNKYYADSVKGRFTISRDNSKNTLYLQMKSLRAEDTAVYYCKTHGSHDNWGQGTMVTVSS VL: SYVLTQPPSVSGTPGQRVTISCSGGRSNIGSNTVKWYQQLPGTAPKLLIYGNDQRPSGVPDRFSGSKSGTSASLAITGVQAEDEADYYCQSYDRGTHPLTMFGTGTKVTVLG	0.38
